# System: SK-MEL-2 melanoma
# testDescription: NCI-60 one-dose screen, 48 h
# conditionNotes: 10 µM unless noted
This is part of a sample that, as a whole, favours compounds with a hit. Of some 83,000 tested, about 20% had one in any assay. Calls of active or inactive are those of the source. Rule for the calls: active = growth percent below 10; inactive = the rest.
Respond using exactly one of the listed classes: T = active, F = inactive

(Q) What was the test verdict on `CCN(CC)CCCCCNc1cc(OC(=O)c2ccccc2)cc2cccnc12` ?
(A) F

(Q) What was the test verdict on `O=[N+]([O-])c1cccc(/C=N\Nc2ccccc2)c1` ?
(A) F

(Q) What was the test verdict on `Cc1cc(Cl)nc(N(CCCNc2ccnc3cc(Cl)ccc23)Cc2ccco2)n1` ?
(A) F

(Q) What was the test verdict on `COc1ccc(-c2nc3ncccn3c2-c2nc3ccc(Br)cc3[nH]2)cc1` ?
(A) F

(Q) What was the test verdict on `CCCCCCCC(=O)SCC/C=C/[C@@H]1CC(=O)NCc2cccc(n2)CN(Cc2ccc(Cl)cc2)CC(=O)N[C@@H](C(C)C)C(=O)O1` ?
(A) T

(Q) What was the test verdict on `C=C(C)[C@@H]1CC[C@]2(CN)CC[C@]3(C)[C@H](CC[C@@H]4[C@@](C)(CCCN)[C@H](C(=C)C)CC[C@]43C)[C@@H]12` ?
(A) F

(Q) What was the test verdict on `Cc1cc(N2CCCCC2)nc(N(CCCNc2ccnc3cc(Cl)ccc23)Cc2ccco2)n1` ?
(A) F

(Q) What was the test verdict on `CC1(C)C(=O)/C(=C\c2cccnc2)C[C@]2(C)[C@H]3CC[C@@H]4[C@@H](C(=O)/C=C/c5ccncc5)CC[C@@]4(C)[C@]3(C)CC[C@@H]12` ?
(A) T

(Q) What was the test verdict on `COC(=O)[C@]12CC[C@@H](C)[C@H](C)[C@@H]1C1=CC[C@@H]3[C@@]4(C)C(c5ncon5)=C[C@@](C)(CO)C4=CC[C@@]3(C)[C@]1(C)CC2` ?
(A) T

(Q) What was the test verdict on `Cn1c(=O)c2c(ncn2CC(=O)Nc2ccc(S(N)(=O)=O)cc2)n(C)c1=O` ?
(A) F

(Q) What was the test verdict on `CC1(n2nnnc2N2CCCN(c3ncccc3N)CC2)CCC1` ?
(A) F

Just for reference, PubChem BioAssay (NCI) is where these values come from.
